List of IC50 values.
target: hmGluR1 receptor (Homo sapiens, UniProt Q13255); construct: expressed in transfected cells; test: IC50 determination: intracellular calcium mobilization (FLIPR) upon Quisqualate stimulation in CHO cells stably expressing hmGluR1; type: cell-based; details: against Quisqualate 1 μM (EC80), FLIPR calcium mobilization, read-out: IC50 Class
Sequence (Q13255 19-1194): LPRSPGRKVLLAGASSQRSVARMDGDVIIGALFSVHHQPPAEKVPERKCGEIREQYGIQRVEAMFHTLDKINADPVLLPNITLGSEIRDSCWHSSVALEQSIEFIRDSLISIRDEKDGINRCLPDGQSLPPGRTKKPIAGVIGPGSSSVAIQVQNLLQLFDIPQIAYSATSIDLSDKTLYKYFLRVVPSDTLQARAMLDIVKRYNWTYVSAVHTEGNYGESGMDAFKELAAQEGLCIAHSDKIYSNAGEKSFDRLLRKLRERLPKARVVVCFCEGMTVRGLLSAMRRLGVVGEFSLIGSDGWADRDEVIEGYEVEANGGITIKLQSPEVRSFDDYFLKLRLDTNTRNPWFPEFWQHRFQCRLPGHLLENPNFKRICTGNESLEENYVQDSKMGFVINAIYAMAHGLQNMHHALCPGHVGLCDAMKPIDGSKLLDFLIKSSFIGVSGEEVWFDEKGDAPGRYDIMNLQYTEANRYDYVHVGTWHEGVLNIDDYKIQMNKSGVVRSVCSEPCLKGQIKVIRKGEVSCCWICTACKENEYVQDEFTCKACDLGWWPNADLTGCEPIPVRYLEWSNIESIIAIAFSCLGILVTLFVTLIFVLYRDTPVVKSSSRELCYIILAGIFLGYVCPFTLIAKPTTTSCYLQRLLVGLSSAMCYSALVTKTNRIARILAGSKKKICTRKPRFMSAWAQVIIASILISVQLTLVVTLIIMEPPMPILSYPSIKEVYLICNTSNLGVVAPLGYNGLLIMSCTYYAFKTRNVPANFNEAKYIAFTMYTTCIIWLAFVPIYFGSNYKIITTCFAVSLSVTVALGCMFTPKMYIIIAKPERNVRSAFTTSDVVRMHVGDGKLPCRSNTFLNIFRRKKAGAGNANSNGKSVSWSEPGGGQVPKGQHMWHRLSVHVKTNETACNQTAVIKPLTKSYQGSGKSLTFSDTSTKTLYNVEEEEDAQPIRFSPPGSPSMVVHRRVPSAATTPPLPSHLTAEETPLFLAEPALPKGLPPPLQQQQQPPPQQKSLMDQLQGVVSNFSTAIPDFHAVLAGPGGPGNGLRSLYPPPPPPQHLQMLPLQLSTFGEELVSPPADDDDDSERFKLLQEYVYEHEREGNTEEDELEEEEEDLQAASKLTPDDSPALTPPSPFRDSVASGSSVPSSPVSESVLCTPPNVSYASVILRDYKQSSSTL

{"columns": ["molecule", "IC50"],
 "data": [
  ["CC(C)Nc1ccnc2sc3c(=O)n(-c4ccc(F)cc4)cnc3c12 [28GX]", "150 to 1000 nM"],
  ["O=c1c2sc3nccc(NCC4CC4)c3c2ncn1-c1ccc2occc2c1 [28BX]", "150 to 1000 nM"],
  ["C#CCN(C)c1ccnc2sc3c(=O)n(-c4ccc(Br)cc4)cnc3c12 [28DV]", "< 50 nM"],
  ["COCCNc1ncnc2sc3c(=O)n(-c4ccc(Cl)cc4)cnc3c12 [95DI]", "< 50 nM"],
  ["O=c1c2sc3nccc(CC4CC4)c3c2ncn1-c1ccc(Cl)cc1", "150 to 1000 nM"],
  ["Cc1ccc(-n2cnc3c(sc4nccc(NCC5CCCO5)c43)c2=O)cc1 (centres unmarked) [28ET]", "50 to 150 nM"],
  ["COc1ccc(-n2cnc3c(sc4ncnc(Nc5ccccc5Cl)c43)c2=O)cc1 [190N]", "> 1000 nM"],
  ["CN(C)c1cccc2sc3c(=O)n(-c4cc(F)cc(F)c4)cnc3c12 [103Q]", "150 to 1000 nM"],
  ["C=C(C)CNc1ccnc2sc3c(=O)n(-c4ccc5c(c4)OCO5)cnc3c12 [28FG]", "150 to 1000 nM"],
  ["CN(C)c1cccc2sc3c(=O)n(-c4cc(Cl)cc(Cl)c4)cnc3c12 [103K]", "> 1000 nM"],
  ["COc1ccc(-n2cnc3c(sc4nccc(N5CC(O)C5)c43)c2=O)cc1 [28DJ]", "50 to 150 nM"],
  ["C#CCNc1ncnc2sc3c(=O)n(-c4ccc(OC)cc4)cnc3c12 [95EI]", "< 50 nM"],
  ["CN(C)c1cccc2sc3c(=O)n(-c4ccccc4Cl)cnc3c12 [103G]", "> 1000 nM"],
  ["O=c1c2sc3ncnc(Nc4ccccc4)c3c2ncn1-c1ccc(F)cc1 [95FZ]", "> 1000 nM"],
  ["Cc1ccc(-n2cnc3c(sc4ncc(C(N)=O)cc43)c2=O)cc1 [205C]", "150 to 1000 nM"],
  ["Cc1ccc(-n2cnc3c(sc4nccc(N[C@@H](C)CO)c43)c2=O)cc1 [28DD]", "150 to 1000 nM"],
  ["COc1cc(-n2cnc3c(sc4nccc(NC5CC5)c43)c2=O)ccc1F [131N]", "150 to 1000 nM"],
  ["CNc1c(Cl)cnc2sc3c(=O)n(-c4ccc(Cl)cc4)cnc3c12", "< 50 nM"],
  ["CNc1ccnc2sc3c(=O)n(-c4ccncc4)cnc3c12 [28EF]", "150 to 1000 nM"],
  ["COc1ccnc2sc3c(=O)n(-c4ccc(Cl)cc4)cnc3c12 [28FS]", "< 50 nM"]
]}
